Source listed as patent US20080194585A1.

# Test system: Plasmopara viticola
# experiment: Test D: grape downy mildew, spray after inoculation of grape seedlings
# Format: in vivo
# condition_description: Plasmopara viticola, 168 h, 200 ppm; 100 = 100% disease control, 0 = no control relative to controls; read-out: Test D disease control rating

[
  {
    "compound": "CCC(C)Cn1c(-c2ccc(F)cc2F)c(C)nc(C#N)c1=NC(C)=O (stereo not drawn)",
    "target_system": "Plasmopara viticola",
    "pest or weed control at 200 ppm": "0%"
  },
  {
    "compound": "NC(=O)c1nc(Cl)c(-c2c(F)cc(F)cc2F)n(-c2cccc(F)c2)c1=O",
    "target_system": "Plasmopara viticola",
    "pest or weed control at 200 ppm": "40%"
  },
  {
    "compound": "CC(C)=Nn1c(-c2c(F)cccc2F)c(Cl)nc(-n2cccn2)c1=O",
    "target_system": "Plasmopara viticola",
    "pest or weed control at 200 ppm": "0%"
  }
]

###

Test F disease control rating: recorded values
# Test system: Phytophthora infestans
# experiment: whole plant or invertebrate
# Type: in vivo
# condition_description: 200 ppm; 100 = 100% disease control, 0 = no control relative to controls

[
  {
    "compound": "O=c1c(-n2cccn2)nc(Cl)c(-c2c(F)cc(F)cc2F)n1Cc1ccc(Br)cc1 [compound 377]",
    "u": "%",
    "Test F disease control rating": 0
  },
  {
    "compound": "Cc1nc(C(N)=O)c(=N)n(CC(C)C)c1-c1ccc(F)cc1F [compound 427]",
    "u": "%",
    "Test F disease control rating": 0
  },
  {
    "compound": "CCC(C)Cn1c(-c2ccc(F)cc2F)c(C)nc(C(N)=O)c1=N (centres unmarked) [compound 428]",
    "u": "%",
    "Test F disease control rating": 0
  },
  {
    "compound": "Cc1nc(C#N)c(=N)n(CC(C)C)c1-c1ccc(F)cc1F [compound 425]",
    "u": "%",
    "Test F disease control rating": 16
  },
  {
    "compound": "CCC(C)c1c(Cl)nc(-n2ccc(C)n2)c(=O)n1CC(C)C (centres unmarked) [compound 390]",
    "u": "%",
    "Test F disease control rating": 0
  },
  {
    "compound": "O=c1c(-n2cccn2)nc(Cl)c(-c2c(F)cccc2F)n1-c1ccccc1OC(F)(F)F [compound 396]",
    "u": "%",
    "Test F disease control rating": 0
  },
  {
    "compound": "NC(=O)c1nc(Cl)c(-c2c(F)ccc(F)c2F)n(-c2ccccc2)c1=O [compound 419]",
    "u": "%",
    "Test F disease control rating": 95
  },
  {
    "compound": "CCCn1c(-c2c(F)cc(F)cc2F)c(Cl)nc(C(N)=O)c1=O [compound 413]",
    "u": "%",
    "Test F disease control rating": 95
  },
  {
    "compound": "CC(C)Cn1c(-c2c(F)cccc2F)c(I)nc(-c2ccccn2)c1=O [compound 401]",
    "u": "%",
    "Test F disease control rating": 0
  },
  {
    "compound": "O=c1c(-n2cccn2)nc(Cl)c(-c2c(F)cccc2F)n1-c1ccc(OC(F)(F)F)cc1 [compound 398]",
    "u": "%",
    "Test F disease control rating": 0
  },
  {
    "compound": "CCC(C)Cn1c(-c2c(F)cc(F)cc2F)c(Cl)nc(C(=O)NOC)c1=O (centres unmarked) [compound 417]",
    "u": "%",
    "Test F disease control rating": 93
  },
  {
    "compound": "COc1ccccc1-n1c(-c2c(F)cccc2F)c(Cl)nc(-n2cccn2)c1=O [compound 393]",
    "u": "%",
    "Test F disease control rating": 0
  },
  {
    "compound": "CCC(C)Cn1c(-c2c(F)cc(F)cc2F)c(Cl)nc(C(N)=O)c1=O (centres unmarked) [compound 415]",
    "u": "%",
    "Test F disease control rating": 99
  },
  {
    "compound": "O=c1c(-n2cccn2)nc(Cl)c(-c2c(F)cccc2F)n1-c1ccccc1C(F)(F)F [compound 399]",
    "u": "%",
    "Test F disease control rating": 0
  }
]

###

# System: Botrytis cinerea
# experiment: Test E: tomato botrytis, preventive spray on tomato seedlings
# condition_description: 40 ppm (marked *); 100 = 100% disease control, 0 = no control
Marks after values point to notes of the source that are not given here.
value_type: Test E disease control rating

[
  {
    "compound": "O=c1c(-n2cccn2)nc(Cl)c(-c2c(F)cccc2F)n1C1CC1c1ccccc1 (centres unmarked)",
    "value_type": "Test E disease control rating",
    "result": "0* %"
  },
  {
    "compound": "O=c1c(-n2cccn2)nc(Cl)c(-c2c(F)cccc2F)n1C1CC1",
    "value_type": "Test E disease control rating",
    "result": "92* %"
  },
  {
    "compound": "CCCCn1c(-c2ccc(F)cc2Cl)c(Br)nc(N2CCC=N2)c1=O",
    "value_type": "Test E disease control rating",
    "result": "97* %"
  },
  {
    "compound": "O=c1c(-n2cccn2)nc(Cl)c(-c2c(F)cc(F)cc2F)n1-c1ccc(Br)cc1",
    "value_type": "Test E disease control rating",
    "result": "99* %"
  },
  {
    "compound": "CC(C)Cn1c(-c2cccc(C#N)c2)c(Cl)nc(-n2cncn2)c1=O",
    "value_type": "Test E disease control rating",
    "result": "0* %"
  }
]

###

Test B disease control rating: recorded values
# Tested on: Colletotrichum orbiculare
# experiment: Test B: cucumber Colletotrichum anthracnose, preventive spray on cucumber seedlings
# condition_description: 200 ppm; 100 = 100% disease control, 0 = no control

[
  {
    "compound": "CC(C)c1c(Cl)nc(-n2cccn2)c(=O)n1-c1ccccc1",
    "Test B disease control rating": "0%"
  },
  {
    "compound": "O=c1c(-n2cccn2)nc(Cl)c(-c2ccccc2Cl)n1Cc1ccccc1",
    "Test B disease control rating": "91%"
  },
  {
    "compound": "CC(C)Cn1c(C2CCCCC2)c(Cl)nc(-n2cccn2)c1=O",
    "Test B disease control rating": "0%"
  },
  {
    "compound": "Cc1ccn(-c2nc(Cl)c(-c3cccc4c3OCO4)n(CC(C)C)c2=O)n1",
    "Test B disease control rating": "0%"
  },
  {
    "compound": "CCCCCc1c(Cl)nc(-n2cccn2)c(=O)n1CC(C)C",
    "Test B disease control rating": "0%"
  },
  {
    "compound": "Cc1ccn(-c2nc(Cl)c(C3CCCCC3)n(CC(C)C)c2=O)n1",
    "Test B disease control rating": "0%"
  },
  {
    "compound": "CCC(C)Cn1c(-c2ccc(F)cc2Cl)c(Cl)nc(-n2ccc(Br)n2)c1=O (racemic)",
    "Test B disease control rating": "94%"
  }
]

###

Test I disease control rating: recorded values
# System: fusarium graminearium
# experiment: Test I: wheat head scab, preventive spray on wheat seedlings
# condition_description: 200 ppm; 100 = 100% disease control, 0 = no control

[
  {
    "compound": "CCC(C)Cn1c(-c2ccc(F)cc2Cl)c(Cl)nc(-n2ccc(C(OC)OC)n2)c1=O (racemic)",
    "u": "%",
    "Test I disease control rating": 0
  },
  {
    "compound": "Cc1ccn(-c2nc(Cl)c(CC(C)C)n(CC(C)C)c2=O)n1",
    "u": "%",
    "Test I disease control rating": 0
  },
  {
    "compound": "O=c1c(-n2cccn2)nc(Cl)c(-c2c(F)cccc2F)n1-c1ccccc1Br",
    "u": "%",
    "Test I disease control rating": 86
  },
  {
    "compound": "Cc1ccn(-c2nc(Cl)c(C3CCCC3)n(CC(C)C)c2=O)n1",
    "u": "%",
    "Test I disease control rating": 0
  },
  {
    "compound": "CCC(C)Cn1c(-c2c(F)cccc2F)c(Cl)nc(C(=O)NCC2CC2)c1=O (centres unmarked)",
    "u": "%",
    "Test I disease control rating": 0
  },
  {
    "compound": "CCC(C)Cn1c(-c2c(F)cccc2F)c(Cl)nc(C(=O)NC(C)C)c1=O (centres unmarked)",
    "u": "%",
    "Test I disease control rating": 0
  },
  {
    "compound": "O=c1c(-n2cccn2)nc(Cl)c(-c2c(F)cc(F)cc2F)n1-c1cccc(C(F)(F)F)c1",
    "u": "%",
    "Test I disease control rating": 0
  },
  {
    "compound": "O=c1c(-n2cccn2)nc(Cl)c(-c2c(F)cc(F)cc2F)n1Cc1cccc(Br)c1",
    "u": "%",
    "Test I disease control rating": 93
  },
  {
    "compound": "CCC(C)CNC(=O)c1nc(Cl)c(-c2c(F)cccc2F)n(CC(C)CC)c1=O (centres unmarked)",
    "u": "%",
    "Test I disease control rating": 0
  },
  {
    "compound": "O=c1c(-n2cccn2)nc(Cl)c(-c2c(F)cccc2F)n1C1CC1c1ccccc1 (centres unmarked)",
    "u": "%",
    "Test I disease control rating": 0
  },
  {
    "compound": "Cc1ccn(-c2nc(Cl)c(-c3cc4c(cc3Cl)OCO4)n(CC(C)C)c2=O)n1",
    "u": "%",
    "Test I disease control rating": 0
  }
]
